testedTarget: Full length human recombinant HDAC11 (Homo sapiens)
Construct: Full length human recombinant HDAC6 and HDAC11 proteins were expressed in baculoviral system
experimentalDetails: In vitro histone deacetylase assay, enzymatic HDAC11 (electrophoretic mobility shift assay)
assayConditions: 10 nM HDAC11; 2 μM peptide substrate FAM-RHKK(tri-fluor-Ac)—NH2; 25° C.; 12 concentrations; read-out: HDAC11 Activity Range (IC50)
pIC50: −log10 of the molar value.
Listed here are compounds together with their documented pIC50.

1. O=C(NO)c1ccc2c(c1)C[C@]1(CC2)CCN(c2cccc3c2OCC3)C1=O [Compound I-108] : < 6.30
2. O=C(NO)c1ccc2c(c1)C[C@]1(CC2)CCN(Cc2ccc(Cl)cn2)C1=O [Compound I-40] : ≥ 7.00

Below: the item to evaluate.
For Cc1ccc(CN2CC[C@@]3(CCc4ccc(C(=O)NO)cc4C3)C2=O)cc1 [Compound I-122] the compound record lists pIC50 as ≥ 7.00

###

testedTarget: Full length human recombinant HDAC11 (Homo sapiens, UniProt Q96DB2)
Construct: Full length human recombinant HDAC6 and HDAC11 proteins were expressed in baculoviral system
Sequence (Q96DB2 1-347): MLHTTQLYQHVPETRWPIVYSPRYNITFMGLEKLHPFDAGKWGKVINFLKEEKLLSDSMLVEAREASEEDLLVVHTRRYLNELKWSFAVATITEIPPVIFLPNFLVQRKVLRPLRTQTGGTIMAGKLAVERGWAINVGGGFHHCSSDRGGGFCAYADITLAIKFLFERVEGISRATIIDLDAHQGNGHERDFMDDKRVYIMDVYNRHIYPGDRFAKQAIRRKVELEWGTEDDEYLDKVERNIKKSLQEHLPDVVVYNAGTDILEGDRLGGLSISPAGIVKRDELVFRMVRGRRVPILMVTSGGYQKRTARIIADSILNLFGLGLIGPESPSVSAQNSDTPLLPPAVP
experimentalDetails: In vitro histone deacetylase assay, enzymatic HDAC11 (electrophoretic mobility shift assay)
assayConditions: 10 nM HDAC11; 2 μM peptide substrate FAM-RHKK(tri-fluor-Ac)—NH2; 25° C.; 12 concentrations; read-out: HDAC11 Activity Range (IC50)
pIC50: −log10 of the molar value.
Listed here are compounds together with their documented pIC50.

Some solved entries appear below for comparison.
1) O=C(NO)c1ccc2c(c1)C[C@]1(CC2)CCN(Cc2ccccc2F)C1=O : ≥ 7.00
2) COc1cccc(CN2CCC3(CCc4ccc(C(=O)NO)cc4C3)C2)c1 (centres unmarked) : < 6.30
3) O=C(NO)c1ccc2c(c1)C[C@]1(CC2)CCN(Cc2ccccc2OC(F)F)C1=O : ≥ 7.00
4) COCCCN1C[C@]2(CCc3ccc(C(=O)NO)cc3C2)CC1=O : < 6.30
5) COc1ccc(S(=O)(=O)N2CCC3(CCc4ccc(C(=O)NO)cc4O3)CC2)cc1 : < 6.30

For COc1ccc(CCN2CCC3(CCc4ccc(C(=O)NO)cc4C3)C2=O)cc1 (centres unmarked) the compound record lists pIC50 as 6.30 to 7.00

For O=CN1CCC2(CCc3ccc(C(=O)NO)cc3C2)C1 (centres unmarked) the compound record lists pIC50 as < 6.30

For `O=C(NO)c1ccc2c(c1)C[C@@]1(CC2)CC(=O)N(CC2COC2)C1` the compound record lists pIC50 as < 6.30
